Origin of the recorded values: PubChem BioAssay (NCATS)

Target: Retinal dehydrogenase 2 (Homo sapiens) (UniProt O94788)
Experiment: qHTS for Inhibitors of the Aldehyde Dehydrogenase Family (ALDH1A2) Confirmation screens (AID 2061314); also: nearly all actives have a fitted effect of over 65% in size
Conditions: ALDH1A2 enzyme inhibition qHTS confirmation; series mostly up to 45.9 µM
Inconclusive results are not listed. The source made the active and inactive calls. Calls follow the shape of the dose curve; as a rule, active = well fitted inhibition curve with a large enough effect; inconclusive = small, poorly fitted or top-dose-only effect; inactive = no such curve, though single readings can be large or run the other way.
Entry note: the call must match one of active, inactive

[
  {
    "molecule": "COc1ccnc(NC(=S)N2CCN(c3ccc(Cl)c(Cl)c3)CC2)c1",
    "classification": "active"
  },
  {
    "molecule": "COc1ccnc(NC(=S)N2CCN(c3ccccc3C(F)(F)F)CC2)c1",
    "classification": "active"
  },
  {
    "molecule": "O=C(Nc1cncc(NC(=O)c2cccs2)c1)c1cccs1",
    "classification": "inactive"
  },
  {
    "molecule": "N#Cc1ccccc1OC1=NS(=O)(=O)c2ccccc21",
    "classification": "inactive"
  }
]

[Q] Hi, do you know how Cc1ccc(C(=O)N2CCC(CCC(=O)N3CCCCC3)CC2)cc1 came out in this test?
[A] inactive

[Q] Hi, do you know how NC(=O)N1CCN(c2nc(-c3ccc(Br)cc3)cs2)CC1 came out in this test?
[A] inactive

[Q] Hi, do you know how CC(C)NCC(O)c1ccc(O)c(O)c1 (stereo unspecified) came out in this test?
[A] inactive

* * *

Target: Cellular tumor antigen p53 (Homo sapiens)
Test: Primary qHTS for small molecule compounds that upregulate eGFP-tagged delta133p53alpha (in N-terminal) cells. (AID 2060322);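 also: cells pre-induced with doxycycline then dosed without doxycycline; 0% = DMSO vehicle and 100% = reference activator; nearly all actives have a fitted effect of over 75% in size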
Details: NCI-H358 eGFP-delta133p53alpha fluorescence, 24 h; hits give high values
Records with an inconclusive call do not appear. Active and inactive are the calls of the source. Calls come from the whole dose curve; as a rule, active = well fitted activation curve with a large enough effect; inconclusive = small, poorly fitted or top-dose-only effect; inactive = no such curve, though single readings can be large or run the other way.
endpoint-name: activation

Consider the following illustrative entries.
[
  {
    "molecule": "CC[C@H]1OC(=O)[C@H](C)[C@@H](OC2C[C@@](C)(OC)[C@@H](O)[C@H](C)O2)[C@H](C)[C@@H](OC2O[C@H](C)C[C@H](NC)[C@H]2O)[C@](C)(O)C[C@@H](C)CN(C)[C@H](C)[C@@H](O)[C@]1(C)O (some centres not stated)",
    "target-under-test": "Cellular tumor antigen p53 (Homo sapiens)",
    "activation": "4.33% (inactive)"
  },
  {
    "molecule": "Cn1nnc(-c2ccc(-c3ccc(N4C[C@H](CO)OC4=O)cc3F)cn2)n1",
    "target-under-test": "Cellular tumor antigen p53 (Homo sapiens)",
    "activation": "-5.36% (inactive)"
  },
  {
    "molecule": "CC(=O)OCC(Cc1ccccc1)NC(=O)C(Cc1ccccc1)NC(=O)c1ccccc1 (configuration not stated)",
    "target-under-test": "Cellular tumor antigen p53 (Homo sapiens)",
    "activation": "-13% (inactive)"
  },
  {
    "molecule": "CCn1cc(NC(=S)Nc2cc(Cl)ccc2OC)c(C(N)=O)n1",
    "target-under-test": "Cellular tumor antigen p53 (Homo sapiens)",
    "activation": "-5% (inactive)"
  }
]

[Q] activation for NC(=O)NC1N=C([O][Al])NC1=O (configuration not stated) ?
[A] 8.47% (inactive)

[Q] activation for CC(=O)OC1C(CO)OC(O[C@H]2[C@H](OC(=O)[C@]34CCC(C)(C)C[C@H]3C3=CCC5[C@@]6(C)CC[C@H](O[C@@H]7O[C@H](C(=O)O)[C@@H](O)[C@H](O[C@@H]8OC[C@@H](O)[C@H](O)[C@H]8O)[C@H]7O[C@@H]7O[C@H](CO)[C@H](O)[C@H](O)[C@H]7O)[C@@](C)(C=O)C6CC[C@@]5(C)[C@]3(C)C[C@H]4O)O[C@H](C)[C@H](OC3OC(C)C(OC4OCC(O)C(O)C4O)C(O)C3O)[C@@H]2O)C(O)C1O (some centres not stated) ?
[A] 4.58% (inactive)

[Q] activation for Cc1cccc(C)c1OCC(N)C(C)C (configuration not stated) ?
[A] -8.7% (inactive)

[Q] activation for Cc1c(N(C)CS(=O)(=O)O)c(=O)n(-c2ccccc2)n1C ?
[A] -7.34% (inactive)

[Q] activation for COC1CCN(C(=O)c2cc(Cc3n[nH]c(=O)c4ccccc34)ccc2F)CC1 ?
[A] 4.47% (inactive)

[Q] activation for Nc1ccc(S(=O)(=O)Nc2ccc(Cl)nn2)cc1 ?
[A] 2.51% (inactive)

[Q] activation for O=C(c1ccc(OC(F)F)c(C#Cc2ccccn2)c1)N1Cc2cccnc2C1 ?
[A] 4.77% (inactive)

[Q] activation for O=C(CCOCCOCCOCCOCCC(=O)Nc1c(I)cc(I)c(C(=O)O)c1I)Nc1c(I)cc(I)c(C(=O)O)c1I ?
[A] -9.21% (inactive)

[Q] activation for COc1ccc(C2COc3cc(O)ccc3C2)c(O)c1 (configuration not stated) ?
[A] -12.2% (inactive)

[Q] activation for COCCCCC(=NOCCN)c1ccc(C(F)(F)F)cc1 ?
[A] 8.31% (inactive)

[Q] activation for COc1ccccc1[C@@H]1C2=C(CC(C)(C)CC2=O)Nc2n[nH]c(C(F)(F)F)c21 ?
[A] 9.67% (inactive)

[Q] activation for CCOC(=O)[C@H](CCc1ccccc1)CC1(C(=O)N[C@H]2CCc3ccccc3N(CC(=O)O)C2=O)CCCC1 ?
[A] 6.21% (inactive)

[Q] activation for O=C(O)[C@H]1NCCC[C@H]1C(=O)O ?
[A] -3.88% (inactive)

* * *

Assay: qHTS for Inhibitors of the Aldehyde Dehydrogenase Family (ALDH1A2, ALDH1A3, ALDH2, ALDH3A1) (AID 2061307); also: nearly all actives have a fitted effect of over 50% in size
Conditions: ALDH inhibition qHTS; series mostly up to 50.3 µM
Records with an inconclusive call do not appear. Active and inactive are the calls of the source. Calls follow the shape of the dose curve; as a rule, active = well fitted inhibition curve with a large enough effect; inconclusive = small, poorly fitted or top-dose-only effect; inactive = no such curve, though single readings can be large or run the other way.
Entry note: the call must match one of active, inactive

[
  {
    "structure-string": "C[C@H]1CO[C@@H]2Cn3cc(C(=O)NCc4ccc(F)cc4F)c(=O)c(O)c3C(=O)N12",
    "classification": "inactive"
  }
]

[Q] Hi, do you know how COc1cc([C@@H](O[C@@H]2O[C@H](CO)[C@@H](O)[C@H](O)[C@H]2O)[C@@H]2CO[C@H](c3ccc(O)c(OC)c3)[C@H]2CO)ccc1O came out in this test?
[A] inactive

[Q] Hi, do you know how O=C(c1ccccc1)N1CCN(c2nc(-c3ccc(Br)cc3)cs2)CC1 came out in this test?
[A] active

[Q] Hi, do you know how Cc1ccc(OCCn2c(CCNC(=O)c3cccnc3)nc3ccccc32)cc1 came out in this test?
[A] inactive

* * *

Below, each entry is listed with its recorded activation.
Molecular target: Cellular tumor antigen p53 (Homo sapiens)
Test: Primary qHTS for small molecule compounds that upregulate eGFP-tagged delta133p53alpha (in N-terminal) cells. (AID 2060322);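 also: cells pre-induced with doxycycline then dosed without doxycycline; 0% = DMSO vehicle and 100% = reference activator; nearly all actives have a fitted effect of over 75% in size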
Conditions: NCI-H358 eGFP-delta133p53alpha fluorescence, 24 h; hits give high values
Records with an inconclusive call do not appear.
Only the number, expressed in %, is required.

Consider the following illustrative entries.
[
  {
    "molecule": "Cc1c(F)cc2c(=O)c(C(=O)O)cn3c2c1CCC3C (stereo not drawn)",
    "activation [%]": 16.7
  },
  {
    "molecule": "CCCCN=C(N)NC(=N)N",
    "activation [%]": 9.6
  },
  {
    "molecule": "CC=CC[C@@H](C)C(=O)[C@H]1C(=O)N[C@@H](C(C)C)C(=O)N(C)CC(=O)N(C)[C@@H](CC(C)C)C(=O)N[C@@H](C(C)C)C(=O)N(C)[C@@H](CC(C)C)C(=O)N[C@@H](C)C(=O)N[C@H](C)C(=O)N(C)[C@@H](CC(C)C)C(=O)N(C)[C@@H](CC(C)C)C(=O)N(C)[C@@H](C(C)C)C(=O)N1C",
    "activation [%]": 34.2
  },
  {
    "molecule": "Cc1ccc2c(c1)C=Cc1cc(C)ccc1C2c1cn(Cc2ccc(C(=O)Nc3nn[nH]n3)o2)c(=O)[nH]c1=S",
    "activation [%]": -8.33
  },
  {
    "molecule": "CC(=O)OC1CC(=O)C2(C)C3CC4=C(OC(C)CC4=O)OC3(C)CCC2C1(C)C (stereo not drawn)",
    "activation [%]": -6.11
  }
]

Please turn your attention to the following entry.
[Q] activation for CC(=O)NC[C@H]1CN(c2ccc(N3CCN(C(=O)CO)CC3)c(F)c2)C(=O)O1 ?
[A] 11.6

* * *

Below, each entry is listed with its recorded activation.
Molecular target: Cellular tumor antigen p53 (Homo sapiens)
Assay: Primary qHTS for small molecule compounds that upregulate eGFP-tagged delta133p53alpha (in N-terminal) cells. (AID 2060322);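 also: cells pre-induced with doxycycline then dosed without doxycycline; 0% = DMSO vehicle and 100% = reference activator; nearly all actives have a fitted effect of over 75% in size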
Details: NCI-H358 eGFP-delta133p53alpha fluorescence, 24 h; hits give high values
Inconclusive results are not listed.
Only the number, expressed in %, is required.

Consider the following illustrative entries.
[
  {
    "compound": "C=C1CCC2C(C)(C(=O)OC)CCCC2(C)C1CCC(C)CC(=O)O (stereo not drawn)",
    "endpoint-name": "activation",
    "measured-result": -13
  },
  {
    "compound": "CCCCCCCCCCCCCCSCC(=O)O",
    "endpoint-name": "activation",
    "measured-result": -11
  },
  {
    "compound": "CCCN1CCCC[C@H]1C(=O)Nc1c(C)cccc1C",
    "endpoint-name": "activation",
    "measured-result": 9.6
  },
  {
    "compound": "C=CC1(C)CC(=O)C2(O)C(C)(O1)C(OC(C)=O)C(O)C1C(C)(C)CCC(O)C12C (stereo not drawn)",
    "endpoint-name": "activation",
    "measured-result": -19.1
  },
  {
    "compound": "CC(/C=C/C=C(\\C)C(=O)O[C@@H]1O[C@H](CO[C@@H]2O[C@H](CO)[C@@H](O)[C@H](O)[C@H]2O)[C@@H](O)[C@H](O)[C@H]1O)=C\\C=C\\C=C(C)\\C=C\\C=C(/C)C(=O)O[C@@H]1C[C@](O)(C(=O)O)C[C@@H](O)[C@H]1OC(=O)/C=C/c1ccc(O)c(O)c1",
    "endpoint-name": "activation",
    "measured-result": 16
  },
  {
    "compound": "CC(=O)/C=C/C1(O)C(C)=CC(=O)CC1(C)C (stereo not drawn)",
    "endpoint-name": "activation",
    "measured-result": 14.3
  }
]

[Q] What activation appears in the records for this compound with Cellular tumor antigen p53 (Homo sapiens)? CN1C(=O)N[C@@H](Cc2c[nH]c3c(Cl)cccc23)C1=O
[A] -25.9

[Q] What activation appears in the records for this compound with Cellular tumor antigen p53 (Homo sapiens)? C[C@]12C=CC(=O)C=C1CC[C@@H]1[C@@H]2[C@@H](O)C[C@@]2(C)[C@H]1CC[C@]2(O)C(=O)COC(=O)CCC(=O)O
[A] 13
